Substrate: F protein of hMPV A virus (human metapneumovirus subtype A)
Test: cell-based or functional assay
observed_property: PRNT IC50 (µg/mL)

1) M4A05 (antibody, V domains shown) VH: EVQLVESGGGLVKPGGSLRLSCAAFGFSLSGYGMNWVRQAPGKGLQWVSSITASSSYITYRDSLRGRFTISRDNAQNSLYLDMTALRVEDTAVYYCATNGKLPPYFDHWGQGVLVVVSS VL: QSVLTQPPSVSGAPGQRVTISCTGSGSNIGAGYDVHWYQQLPGTAPKLLIYDNNHRASGVPDRVSASWSGTSASLAITGLQAEDEADYYCQSYDRNLEGVVFGGGTKLTVL ... 0.0569
2) M2D07 (antibody, V domains shown) VH: QVQLVESGGAVVQPGRSLRLSCAASGFTFTSFSMHWVRQAPGRGLEWVAVISHDGIIKYYADSVKGRFTISRDNSKNTVFLQMNSLRPEDTAVFYCARDFPGSRGFFRYYFDHWGQGTLVTVSS VL: DIQMTQSPSSLSASVGGSVTITCRVDQSISNDLHWYQQKPGKAPKLLISSASSLQSGVPSRFSGSGSGTDFTLTITSLQPEDFATYYCQQSYTTPPLFGQGTTLEIK ... 1.07
